# PROTOCOL TEXT: Ex vivo biodistribution in H69-tumor bearing mice
# EXPERIMENTAL CONDITIONS: mouse, in vivo, iv, Uptake in Intestines, 24 h p.i., n = 4
MEASUREMENT KIND: tissue uptake at 24 h (%ID/g)
Answers are plain numbers, in %ID/g.

Problem: Please look at this compound and report its tissue uptake at 24 h: C[C@@H](O)[C@H](NC(=O)[C@@H]1CSSC[C@H](NC(=O)[C@@H](Cc2ccccc2)NC(=O)CN2CCN(CC(=O)O)CCN(CC(=O)O)CCN(CC(=O)O)CC2)C(=O)N[C@@H](Cc2ccc(O)cc2)C(=O)N[C@H](Cc2c[nH]c3ccccc23)C(=O)N[C@@H](CCCCN)C(=O)N[C@@H]([C@@H](C)O)C(=O)N1)C(=O)O [[^111In]In-DOTA-TATE, metal not drawn, reference compound]
Result: 0.13
